test: recombinant barcode read abundance after kanamycin selection (control-corrected) (log10(CPM+1)); higher = more efficient recombination; sequences stand for … in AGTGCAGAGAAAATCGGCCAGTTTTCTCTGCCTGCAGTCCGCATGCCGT…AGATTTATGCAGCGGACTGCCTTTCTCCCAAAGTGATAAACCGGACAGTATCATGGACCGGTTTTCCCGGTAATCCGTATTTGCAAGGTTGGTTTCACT; site = the 11-nt target
The reader will find reported recombinant barcode read abundance (log10) values listed item by item below.
// no unit, no text: just the number

Use these answered entries as a reference point.
TTAGAGTCTTGGGTTCTAACCTGTTGCCT (site TTAGAGGCTAG): 0.126
TTCCCTACTTGGGTTCTAACCTGTTGCCT (site CTCCCAACTAG): 0.102
CACGCTTCTTGGGTTCTAACCTGTTGCTA (site CACGCTTCTTA): 1.01

Qu. Can you share its recombinant barcode read abundance (log10)? I mean this sequence: CTAAGGACTTGGGTTCTAACCTGTTGCTA (site CGAAGGACTTA)
Ans. 0.0114

Qu. // repeat for TTGGTCACTTGGGTTCTAACCTGTTGCCT (site TTGGACACTAG) and report
Ans. 0.358

Qu. // repeat for TTGGGCGCTTGGGTTCTAACCTGTTGCCT (site TTGGCCGCTAG) and report
Ans. 0.154

Qu. // repeat for CGTATCACTTGGGTTCTAACCTGTTGCCT (site CCGATCACTAG) and report
Ans. 0.0447

Qu. // repeat for GGGGCATCTTGGGTTCTAACCTGTTGCTT (site GGGGCCTCTAA) and report
Ans. 0.0583

Qu. // repeat for CGGTAATCTTGGGTTCTAACCTGTTGCTT (site CGGTAATCTAA) and report
Ans. 0.161

Qu. // repeat for GAGCTAGCTTGGGTTCTAACCTGTTGCGC (site GAGCTAGCTAC) and report
Ans. 0.109

----------
experiment: recombinant UMI read abundance after kanamycin selection (control-corrected) (log10(CPM+1)); higher = more efficient recombination; extreme values may be limits of the assay; sequences stand for … in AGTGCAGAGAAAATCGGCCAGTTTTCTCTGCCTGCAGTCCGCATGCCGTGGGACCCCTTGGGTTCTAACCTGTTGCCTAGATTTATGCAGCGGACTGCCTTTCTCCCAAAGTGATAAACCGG…AGGTTGGTTTCACT; site = the 11-nt donor
The reader will find reported recombinant UMI read abundance (log10) values listed item by item below.

Qu. Can you share its recombinant UMI read abundance (log10)? I mean this sequence: CTCAATCCATGGACCGGTTTTCCCGGTAATCCGTATTTGTT (site CTCAATCCTAA)
Ans. 1.41

Qu. // repeat for ACACTAACATGGACCGGTTTTCCCGGTAATCCGTATTTGTC (site ACACGAACTGA) and report
Ans. 0

Qu. // repeat for TAGCGAGCATGGACCGGTTTTCCCGGTAATCCGTATTTGTC (site TAGCGAGCTGA) and report
Ans. 2.41

Qu. // repeat for ACAGTATCATGGACCGGTTTTCCCGGTAATCCGTATTTGTA (site ACAGTATCTTA) and report
Ans. 3.08

Qu. // repeat for CCAGGTACATGGACCGGTTTTCCCGGTAATCCGTATTTGAT (site CCAGGTGCTAT) and report
Ans. 1.2
